- Tested on: OVCAR-5
- ASSAY NOTES: NCI tumour cell line growth inhibition, 48 h
Activity calls are given as the source filed them. Cut-off read from the data, not from the text of the source: active = GI50 up to about 1.1 µM and inactive = higher.
REPORTED ENDPOINT: GI50

compound=Brc1ccc(-c2cn3ccncc3n2)cc1 target_or_test_system=OVCAR-5 reported_endpoint=GI50 reported_result="> 100 µM (inactive)"

Hello, please tell me recorded GI50 for this one: C/C(=N\NC(N)=O)C(CN(C)C)C(c1ccccc1)c1c(O)c2ccccc2oc1=O (centres undefined)
> 100 µM (inactive)

Hello, please tell me recorded GI50 for this one: "O=C(Cn1c(C(=O)/C=C/c2cccs2)nc2ccccc21)c1ccc(Cl)cc1"
> 100 µM (inactive)

Hello, please tell me recorded GI50 for this one: O=C(O)CC(Cc1ccc2c(c1)OCO2)C(=O)O (centres undefined)
> 100 µM (inactive)

Hello, please tell me recorded GI50 for this one: "Cc1cccc(-c2nc(-c3cnccn3)n(Cc3ccccc3)n2)c1"
> 100 µM (inactive)

Hello, please tell me recorded GI50 for this one: "Cc1c(Cl)cccc1NC(=O)C(=O)C1C(=O)CC(C)(C)CC1=O"
> 100 µM (inactive)

Hello, please tell me recorded GI50 for this one: CCCCCCCCCCCC1CCCC(C)N1 (centres undefined)
80 µM (inactive)

Hello, please tell me recorded GI50 for this one: "CCOc1ccc(NC(=O)/C(Cc2nc3ccccc3nc2O)=N\O)cc1"
> 100 µM (inactive)

Hello, please tell me recorded GI50 for this one: CC(=O)OC1CC(O)CC2=CCC3C4CCC(C(C)(O)C(O)CC5COC(=O)C5C)C4(C)CCC3C21C (centres undefined)
> 25 µM (inactive)

Hello, please tell me recorded GI50 for this one: "Cc1ccc(C)c(NC(=O)c2cc(-c3ccc([N+](=O)[O-])cc3)nc(N)n2)c1"
> 100 µM (inactive)

Hello, please tell me recorded GI50 for this one: C=C(Cl)C(C)(Cl)CCC(Cl)C(C)C (centres undefined)
> 100 µM (inactive)

Hello, please tell me recorded GI50 for this one: "CC(=O)O[C@H]1CC[C@@]2(C)[C@@H](CC[C@@H]3[C@@H]2CC(=O)[C@@]2(C)[C@H]3C[C@@H]3CC(C)=CC(=O)[C@@H]32)C1"
> 100 µM (inactive)

Hello, please tell me recorded GI50 for this one: "COc1cc(-c2oc3c(OC)c(O)cc(O)c3c(=O)c2OC)ccc1O"
22.3 µM (inactive)

Hello, please tell me recorded GI50 for this one: CC(C)(C)OC(=O)NC(CSCc1ccc(C(=O)c2ccccc2)cc1)C(=O)O (centres undefined)
> 100 µM (inactive)
